Entries and their pIC50 values follow.
biological target: VEGF-A165/NRP-1 complex (Homo sapiens, UniProt O14786); construct: Abcam (biotinylated VEGF-A165); test: competitive ELISA: inhibition of (bt)-VEGF-A165 binding to NRP-1; conditions: recombinant human NRP-1; mean ± SD of three independent experiments; tested in the concentrations range 100–3.12 μM
Sequence (O14786 22-641 limits assumed, one chain of several): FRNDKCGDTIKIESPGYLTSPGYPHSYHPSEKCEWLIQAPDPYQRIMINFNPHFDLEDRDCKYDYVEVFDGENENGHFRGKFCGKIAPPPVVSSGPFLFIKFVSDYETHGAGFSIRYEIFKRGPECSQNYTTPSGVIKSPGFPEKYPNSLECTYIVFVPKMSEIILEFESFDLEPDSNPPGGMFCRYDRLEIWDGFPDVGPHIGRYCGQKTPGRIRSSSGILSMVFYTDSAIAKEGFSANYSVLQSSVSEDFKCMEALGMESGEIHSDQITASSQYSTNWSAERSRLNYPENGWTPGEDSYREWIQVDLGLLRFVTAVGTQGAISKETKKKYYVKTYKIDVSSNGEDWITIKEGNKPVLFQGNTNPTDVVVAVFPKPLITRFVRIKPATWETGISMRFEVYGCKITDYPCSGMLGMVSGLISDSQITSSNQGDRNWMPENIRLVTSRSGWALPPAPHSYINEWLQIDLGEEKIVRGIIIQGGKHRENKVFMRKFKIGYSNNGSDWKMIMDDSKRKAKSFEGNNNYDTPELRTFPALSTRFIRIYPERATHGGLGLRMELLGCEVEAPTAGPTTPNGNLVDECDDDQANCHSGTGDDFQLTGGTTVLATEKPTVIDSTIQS
Square brackets hold non-standard residues; d marks the D form. Peptide text beside a SMILES is read from it. Phe(4-CH2NH2) = NCc1ccc(C[C@H](N)C(=O)O)cc1; hArg = N=C(N)NCCCC[C@H](N)C(=O)O; Cit = NC(=O)NCCC[C@H](N)C(=O)O; Agb = N=C(N)NCC[C@H](N)C(=O)O; Dab = NCC[C@H](N)C(=O)O; Dap = NC[C@H](N)C(=O)O
pIC50 here: minus log base 10 of the concentration, concentration in moles per litre.

// solved cases for pIC50 follow
N=C(N)NCCCC[C@H](N)C(=O)NCCCC[C@H](N)C(=O)N[C@@H](CCN)C(=O)N1CCC[C@H]1C(=O)N[C@@H](CCCNC(N)=O)C(=O)O [Compound 10, Lys(Har)-Dab-Pro-Cit] (H-K(hArg)[Dab]P[Cit]-OH): 3.71
N=C(N)NCCCC[C@H](N)C(=O)NCCCC[C@H](N)C(=O)N[C@@H](CN)C(=O)N1CCC[C@H]1C(=O)N[C@@H](Cc1ccc(CN)cc1)C(=O)O [Compound 11, Lys(Har)-Dap-Pro-Phe(4-CH2-NH2)] (H-K(hArg)[Dap]P[Phe(4-CH2NH2)]-OH): 4.64
N=C(N)NCCCC[C@H](N)C(=O)NCCCC[C@H](N)C(=O)N[C@@H](CN)C(=O)N1CCC[C@H]1C(=O)N[C@@H](CCCNC(N)=O)C(=O)O [Compound 9, Lys(Har)-Dap-Pro-Cit] (H-K(hArg)[Dap]P[Cit]-OH): 3.77

Let us examine a further case.
What does the record list as pIC50 for N=C(N)NCCCC[C@H](N)C(=O)NCCCC[C@H](N)C(=O)N[C@@H](CCN)C(=O)N1CCC[C@H]1C(=O)N[C@@H](CCNC(=N)N)C(=O)O [Compound 6, Lys(Har)-Dab-Pro-Agb] (H-K(hArg)[Dab]P[Agb]-OH) ?
3.98

This collection of values is drawn from paper PMC11344719.
